- SYSTEM UNDER TEST: Helios (IKZF2) (Homo sapiens, UniProt Q96SW2+Q9UKS7)
- Sequence (Q9UKS7 whole entry): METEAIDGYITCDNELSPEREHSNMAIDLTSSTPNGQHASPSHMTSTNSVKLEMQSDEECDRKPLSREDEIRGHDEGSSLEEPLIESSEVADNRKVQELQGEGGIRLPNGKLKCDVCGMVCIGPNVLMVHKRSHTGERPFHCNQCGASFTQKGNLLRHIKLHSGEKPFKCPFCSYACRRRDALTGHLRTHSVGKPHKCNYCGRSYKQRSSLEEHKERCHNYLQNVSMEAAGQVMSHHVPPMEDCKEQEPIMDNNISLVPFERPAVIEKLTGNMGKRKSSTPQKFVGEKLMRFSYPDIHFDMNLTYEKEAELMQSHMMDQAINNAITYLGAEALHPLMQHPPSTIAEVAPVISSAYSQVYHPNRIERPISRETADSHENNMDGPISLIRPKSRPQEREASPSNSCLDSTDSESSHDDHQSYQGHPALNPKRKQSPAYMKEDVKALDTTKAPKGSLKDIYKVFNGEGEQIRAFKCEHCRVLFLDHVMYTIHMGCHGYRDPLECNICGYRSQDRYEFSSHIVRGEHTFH
- Sequence (Q96SW2 whole entry): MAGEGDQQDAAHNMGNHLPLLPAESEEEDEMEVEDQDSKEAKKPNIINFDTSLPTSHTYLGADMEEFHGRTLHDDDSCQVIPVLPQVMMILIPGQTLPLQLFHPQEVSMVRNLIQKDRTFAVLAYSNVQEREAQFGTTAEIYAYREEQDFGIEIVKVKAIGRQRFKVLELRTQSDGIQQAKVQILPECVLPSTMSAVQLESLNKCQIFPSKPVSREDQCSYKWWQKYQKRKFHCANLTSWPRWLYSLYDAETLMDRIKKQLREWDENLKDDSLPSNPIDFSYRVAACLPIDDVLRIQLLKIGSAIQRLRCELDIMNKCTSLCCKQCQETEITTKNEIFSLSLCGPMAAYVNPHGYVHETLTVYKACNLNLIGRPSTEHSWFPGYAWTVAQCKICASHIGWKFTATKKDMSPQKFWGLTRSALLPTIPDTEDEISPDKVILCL
- Sequence (Q16531 whole entry partner): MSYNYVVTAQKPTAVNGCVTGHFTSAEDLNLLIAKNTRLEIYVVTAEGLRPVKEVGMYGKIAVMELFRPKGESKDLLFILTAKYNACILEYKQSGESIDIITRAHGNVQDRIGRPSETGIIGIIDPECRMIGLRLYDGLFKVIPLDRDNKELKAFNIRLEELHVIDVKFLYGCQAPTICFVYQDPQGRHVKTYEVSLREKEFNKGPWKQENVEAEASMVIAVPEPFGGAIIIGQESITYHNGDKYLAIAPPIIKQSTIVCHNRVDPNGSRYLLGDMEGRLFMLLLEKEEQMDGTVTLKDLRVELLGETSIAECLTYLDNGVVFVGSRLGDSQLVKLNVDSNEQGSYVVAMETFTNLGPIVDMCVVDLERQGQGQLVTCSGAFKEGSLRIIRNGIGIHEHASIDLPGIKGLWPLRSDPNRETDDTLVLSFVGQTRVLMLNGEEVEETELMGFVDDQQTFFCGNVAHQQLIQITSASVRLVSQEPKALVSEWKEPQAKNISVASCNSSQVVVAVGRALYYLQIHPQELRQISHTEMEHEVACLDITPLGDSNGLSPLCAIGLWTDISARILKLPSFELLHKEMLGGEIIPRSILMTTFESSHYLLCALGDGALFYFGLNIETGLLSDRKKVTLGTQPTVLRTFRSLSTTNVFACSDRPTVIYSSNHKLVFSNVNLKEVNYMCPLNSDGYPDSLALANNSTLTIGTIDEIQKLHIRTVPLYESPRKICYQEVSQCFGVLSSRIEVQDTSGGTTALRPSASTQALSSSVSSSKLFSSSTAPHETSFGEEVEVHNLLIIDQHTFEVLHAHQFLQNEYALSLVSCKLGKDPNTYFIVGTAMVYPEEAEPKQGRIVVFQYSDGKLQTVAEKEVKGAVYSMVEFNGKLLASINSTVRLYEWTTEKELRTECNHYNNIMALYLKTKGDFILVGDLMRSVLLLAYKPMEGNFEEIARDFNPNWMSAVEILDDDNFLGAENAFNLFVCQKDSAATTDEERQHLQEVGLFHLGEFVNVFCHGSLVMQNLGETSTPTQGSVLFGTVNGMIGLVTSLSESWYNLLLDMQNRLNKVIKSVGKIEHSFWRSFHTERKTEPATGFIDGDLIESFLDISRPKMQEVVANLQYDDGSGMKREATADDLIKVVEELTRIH
- ASSAY SUMMARY: Screening of Helios protein degraders using Nano-Glo HiBiT cell line (HiBiT-IKZF2)
- Type: cell-based
- RUN PARAMETERS: compound 10 μM, 6 hours, HiBiT-Helios knock-in Jurkat cells; read-out: HiBiT-IKZF2 Residual amount of Helios (%) 10 μM
Provide the recorded remaining activity at 10 µM for the entries that follow.

Cc1c(C(=O)N2CCC(c3ccc4c(c3)CN(C3CCC(=O)NC3=O)C4=O)CC2)[nH]c2cc(O)ccc12 (stereo not shown); 24%
Cc1cccc2[nH]c(C(=O)N3CCC(c4ccc5c(c4)CN(C4CCC(=O)NC4=O)C5=O)CC3)cc12 (stereo not shown); 98.4%
Cc1c(C(=O)N2CCC(c3ccc4c(c3)CN(C3CCC(=O)NC3=O)C4=O)CC2)[nH]c2cc(C(F)(F)F)ccc12 (stereo not shown); 8.21%
Cc1c(C(=O)N2CCC(c3ccc4c(c3)CN(C3CCC(=O)NC3=O)C4=O)CC2)[nH]c2ccc(Cl)cc12 (stereo not shown); 65.1%
Cc1c(C(=O)N2CCC(c3ccc4c(c3)CN(C3CCC(=O)NC3=O)C4=O)CC2)[nH]c2cc([N+](=O)[O-])ccc12 (stereo not shown); 5.1%
O=Cc1c(C(=O)N2CCC(c3ccc4c(c3)CN(C3CCC(=O)NC3=O)C4=O)CC2)[nH]c2cc(Cl)ccc12 (stereo not shown); 28.7%

Give one value of remaining activity at 10 µM per listed compound.
1. Cc1c(C(=O)N2CC=C(c3ccc4c(c3)CN(C3CCC(=O)NC3=O)C4=O)C2)[nH]c2cc(Cl)ccc12 (stereo not shown)
2. Cc1c(C(=O)N2CCC(c3cc4c(cc3F)C(=O)N(C3CCC(=O)NC3=O)C4)CC2)[nH]c2cc([N+](=O)[O-])ccc12 (stereo not shown)
3. CCc1c(C(=O)N2CCC(c3ccc4c(c3)CN(C3CCC(=O)NC3=O)C4=O)CC2)[nH]c2ccccc12 (stereo not shown)
4. O=C1CCC(N2Cc3cc(C4CCN(C(=O)c5[nH]c6ccccc6c5Cl)CC4)ccc3C2=O)C(=O)N1 (stereo not shown)
5. O=C1CCC(N2Cc3cc(C4CC5CCC(C4)N5C(=O)c4cc5ccc(Cl)cc5[nH]4)ccc3C2=O)C(=O)N1 (stereo not shown)
6. Cc1cccc2cc(C(=O)N3CCC(c4ccc5c(c4)CN(C4CCC(=O)NC4=O)C5=O)CC3)[nH]c12 (stereo not shown)

Reply |
1. 109%
2. 26.5%
3. 72.4%
4. 67%
5. 64.5%
6. 80.4%

Ask | Under Helios (IKZF2) (Homo sapiens, UniProt Q96SW2+Q9UKS7): report remaining activity at 10 µM of Cc1c(C(=O)N2CCC(c3ccc4c(c3)CN(C3CCC(=O)NC3=O)C4=O)CC2)[nH]c2ccc(Br)cc12 (stereo not shown) .
Reply | 64.4%

* * *

- SYSTEM UNDER TEST: Helios (IKZF2) (Homo sapiens, UniProt Q96SW2+Q9UKS7)
- ASSAY SUMMARY: Screening of Helios protein degraders using Nano-Glo HiBiT cell line (HiBiT-IKZF2)
- Type: cell-based
- RUN PARAMETERS: compound 1 μM, 6 hours, HiBiT-Helios knock-in Jurkat cells; read-out: HiBiT-IKZF2 Residual amount of Helios (%) 1 μM
Provide the recorded remaining activity at 1 µM for the entries that follow.

COc1ccc2c(CN3CCOCC3)c(C(=O)N3CCC(c4ccc5c(c4)CN(C4CCC(=O)NC4=O)C5=O)CC3)[nH]c2c1 (centres unmarked) [Compound 110]; 14.2%
COc1cc2cc(C(=O)N3CCC(c4ccc5c(c4)CN(C4CCC(=O)NC4=O)C5=O)CC3)[nH]c2cc1OC (centres unmarked) [Compound 40]; 92.2%
Cc1c(C(=O)N2CCC(c3ccc4c(c3)CN(C3CCC(=O)NC3=O)C4=O)CC2)[nH]c2c(F)c(Cl)ccc12 (centres unmarked) [Compound 99]; 10.9%

Give one value of remaining activity at 1 µM per listed compound.
1. O=C1CCC(N2Cc3cc(C4CCN(C(=O)c5cc6ccc(F)cc6[nH]5)CC4)ccc3C2=O)C(=O)N1 (centres unmarked) [Compound 7]
2. Nc1ccc2cc(C(=O)N3CCC(c4ccc5c(c4)CN(C4CCC(=O)NC4=O)C5=O)CC3)[nH]c2c1 (centres unmarked) [Compound 32]
3. COc1c(C(=O)N2CCC(c3ccc4c(c3)CN(C3CCC(=O)NC3=O)C4=O)CC2)[nH]c2ccccc12 (centres unmarked) [Compound 30]
4. O=C1CCC(N2Cc3cc(C4CCN(C(=O)c5[nH]c6cc(Cl)ccc6c5CO)CC4)ccc3C2=O)C(=O)N1 (centres unmarked) [Compound 105]
5. O=C1CCC(N2Cc3cc(C4CCN(C(=O)C5=Nc6cccc(Cl)c6C5)CC4)ccc3C2=O)C(=O)N1 (centres unmarked) [Compound 4]

Reply |
["93.3%", "62.1%", "86.7%", "15.2%", "104%"]
